Assay system: cdMMP-13 (Homo sapiens, UniProt P45452)
Test description: MMP microfluorometric profiling assay (fluorogenic Mca-peptide substrate)
Assay type: biochemical
Value kind: IC50 (nM)
Give the value in nM but do not write nM after it.

C[C@H](NS(=O)(=O)c1ccccc1)C(=O)NC1=NN=C(c2ccc(C(F)(F)F)cc2)CS1 [Example 4] :: 1030
C[C@H](NS(=O)(=O)N1CCOCC1)C(=O)NC1=NN=C(c2ccc(Cl)cc2)CS1 [Example 28] :: 735

## Task Given the compound C[C@H](NS(=O)(=O)c1ccccc1)C(=O)NC1=NN=C(c2ccc(Br)cc2)CS1 [Example 6] , what is its reported IC50?
## Result 658
